Values from patent US20250276077A1

# Target Or Test System: T1, Human EphA2 (human, UniProt P29317 24-976)
# T1 construct: Endogenous EphA2 in fresh frozen human tumor tissue sections, not a recombinant protein; also called ephrin receptor A2; hEphA2
# Measurement Description: IHC/IF on frozen human tumor tissue: Her2+ BRC
Quantity Measured: IHC score
Give bare numbers.

Recorded IHC score, per entry:
Binder: AB-009812 (antibody, mouse IgG2a, V domains shown, Made on a mouse IgG2a framework) VH: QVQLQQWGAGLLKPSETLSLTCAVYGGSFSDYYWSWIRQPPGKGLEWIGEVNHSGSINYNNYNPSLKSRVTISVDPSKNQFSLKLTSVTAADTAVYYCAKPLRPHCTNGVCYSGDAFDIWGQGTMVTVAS VL: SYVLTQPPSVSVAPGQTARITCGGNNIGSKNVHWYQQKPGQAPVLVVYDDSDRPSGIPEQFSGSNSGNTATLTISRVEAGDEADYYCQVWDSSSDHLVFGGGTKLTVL
IHC score: 2
//
Binder: AB-009813 (antibody, mouse IgG2a, V domains shown, Made on a mouse IgG2a framework) VH: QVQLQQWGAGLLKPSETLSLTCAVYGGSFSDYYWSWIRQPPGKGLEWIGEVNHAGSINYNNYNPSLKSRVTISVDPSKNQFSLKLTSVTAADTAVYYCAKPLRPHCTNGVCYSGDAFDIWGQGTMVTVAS VL: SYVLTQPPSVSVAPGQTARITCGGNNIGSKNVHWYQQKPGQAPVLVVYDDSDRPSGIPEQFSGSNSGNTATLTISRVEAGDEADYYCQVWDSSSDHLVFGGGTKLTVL
IHC score: 1
//
Binder: AB-009815 (antibody, mouse IgG2a, V domains shown, Made on a mouse IgG2a framework) VH: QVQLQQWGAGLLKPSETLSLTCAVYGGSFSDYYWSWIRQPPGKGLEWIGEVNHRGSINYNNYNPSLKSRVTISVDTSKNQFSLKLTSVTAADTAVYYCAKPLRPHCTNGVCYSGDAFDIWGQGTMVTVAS VL: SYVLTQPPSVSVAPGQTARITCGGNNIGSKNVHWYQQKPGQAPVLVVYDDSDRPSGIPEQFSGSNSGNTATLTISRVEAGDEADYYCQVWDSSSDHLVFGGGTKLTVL
IHC score: 2

We next turn to a different binder, shown below.
Documented IHC score of AB-009816 (antibody, mouse IgG2a, V domains shown, Made on a mouse IgG2a framework) VH: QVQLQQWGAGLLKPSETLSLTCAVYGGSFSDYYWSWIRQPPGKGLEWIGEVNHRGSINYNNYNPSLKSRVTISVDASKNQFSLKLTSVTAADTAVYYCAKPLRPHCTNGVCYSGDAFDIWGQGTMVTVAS VL: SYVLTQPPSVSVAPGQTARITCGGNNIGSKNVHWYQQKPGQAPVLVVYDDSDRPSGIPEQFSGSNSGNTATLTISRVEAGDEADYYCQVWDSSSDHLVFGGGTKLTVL : 2
